- Test system: Candida albicans ATCC 44859
- Assay: In vitro antifungal activity, MIC by microdilution (NCCLS M27-A)
- Particulars: CA1, 24 h
Listing of entries alongside the reported MIC/IC80.

Compound	MIC/IC80
CCCCCCCCOS(=O)(=O)[O-].COC(=O)[C@@H](OC(=O)Cn1cc[n+](C)c1)c1ccccc1	>1000 µM
COC(=O)[C@@H](OC(=O)C[n+]1ccn(C)c1)c1ccccc1	>1000 µM
COC(=O)[C@H](OC(=O)C[n+]1ccn(C)c1)c1ccccc1	>1000 µM
CCCCCCCCOS(=O)(=O)[O-].CCOCCOC(=O)[C@@H](OC(=O)Cn1cc[n+](C)c1)c1ccccc1	>1000 µM
CCOCCOC(=O)[C@H](OC(=O)C[n+]1ccn(C)c1)c1ccccc1	>1000 µM
CCCCCOC(=O)C(OC(=O)Cn1cc[n+](C)c1)c1ccccc1.[Br-] (stereo not shown)	500 µM
CCCCCCCCOS(=O)(=O)[O-].CCOCCOC(=O)C(OC(=O)Cn1cc[n+](C)c1)c1ccccc1 (stereo not shown)	>1000 µM
CCOCCOC(=O)[C@@H](OC(=O)Cn1cc[n+](C)c1)c1ccccc1.[Br-]	>1000 µM
COC(=O)C(OC(=O)C[n+]1ccn(C)c1)c1ccccc1 (stereo not shown) [KG89]	>1000 µM
CCCCCOC(=O)[C@@H](OC(=O)Cn1cc[n+](C)c1)c1ccccc1.[Br-]	500 µM
CCCCCOC(=O)[C@@H](C)OC(=O)C[n+]1ccn(C)c1	>1000 µM
CCCCCCCCOS(=O)(=O)[O-].CCOCCOC(=O)C(C)OC(=O)Cn1cc[n+](C)c1 (stereo not shown)	>1000 µM
CCOCCOC(=O)C(OC(=O)Cn1cc[n+](C)c1)c1ccccc1.[Br-] (stereo not shown)	>1000 µM
CCOCCOC(=O)C(C)OC(=O)Cn1cc[n+](C)c1.[Br-] (stereo not shown)	>1000 µM
CCOCCOC(=O)[C@@H](C)OC(=O)C[n+]1ccn(C)c1	>1000 µM
COC(=O)C(OC(=O)C[n+]1ccn(C)c1)c1ccccc1 (stereo not shown) [KG86]	>1000 µM
CCCCCCCCOS(=O)(=O)[O-].CCCCCOC(=O)[C@@H](OC(=O)Cn1cc[n+](C)c1)c1ccccc1	1000 µM
CCCCCCCCOS(=O)(=O)[O-].CCCCCOC(=O)C(OC(=O)Cn1cc[n+](C)c1)c1ccccc1 (stereo not shown)	1000 µM
CCCCCOC(=O)[C@H](OC(=O)C[n+]1ccn(C)c1)c1ccccc1	500 µM

====

- Tested on: Pseudomonas Putida (CP1)
- Assay: Toxicity of pyridinium CILs, IC50 against bacteria strains
- Assay type: cell-based
- Particulars: Pseudomonas putida, read-out: IC50 values

Compound	IC50
COC(=O)C(c1ccc(OC)c(OC)c1)[n+]1ccccc1 (stereo not shown)	> 1000 µM

====

// reported MIC/IC80 per item
- Tested on: Aspergillus fumigatus 231
- Assay: In vitro antifungal activity, MIC by microdilution (NCCLS M27-A)
- Particulars: AF, 24 h

Compound	MIC/IC80
COC(=O)C(OC(=O)C[n+]1ccn(C)c1)c1ccccc1 (stereo not shown) [KG89]	>1000 µmol/L
CCCCCCCCOS(=O)(=O)[O-].CCOCCOC(=O)[C@@H](OC(=O)Cn1cc[n+](C)c1)c1ccccc1 [KG305]	>1000 µmol/L
CCCCCOC(=O)[C@@H](C)OC(=O)C[n+]1ccn(C)c1 [KG159]	>1000 µmol/L
COC(=O)[C@@H](OC(=O)C[n+]1ccn(C)c1)c1ccccc1 [KG91]	>1000 µmol/L
CCCCCCCCOS(=O)(=O)[O-].CCCCCOC(=O)C(OC(=O)Cn1cc[n+](C)c1)c1ccccc1 (stereo not shown) [KG304]	500 µmol/L
COC(=O)C(OC(=O)C[n+]1ccn(C)c1)c1ccccc1 (stereo not shown) [KG86]	>1000 µmol/L
CCCCCOC(=O)C(OC(=O)Cn1cc[n+](C)c1)c1ccccc1.[Br-] (stereo not shown) [KG816]	1000 µmol/L
CCOCCOC(=O)[C@@H](C)OC(=O)C[n+]1ccn(C)c1 [KG161]	>1000 µmol/L
CCCCCCCCOS(=O)(=O)[O-].CCCCCOC(=O)[C@@H](OC(=O)Cn1cc[n+](C)c1)c1ccccc1 [KG302]	1000 µmol/L
CCCCCCCCOS(=O)(=O)[O-].CCOCCOC(=O)C(C)OC(=O)Cn1cc[n+](C)c1 (stereo not shown) [KG172]	>1000 µmol/L
